Test system: SW-620 colon
protocolSummary: NCI tumour cell line growth inhibition, 48 h
attributeMeasured: TGI

COC(=O)c1oc2c(C(=O)/C=C/c3ccc(OC)cc3)c(OCCN3CCOCC3)ccc2c1C = 4.43 µM
CC(C)Cc1ccc(C(C)C(=O)NCc2ccc(Cn3c(=O)sn(CCCI)c3=O)cc2)cc1 (stereo not given) = 0.75 µM
CC(C)c1ccc(/C=C/c2cc(C(=O)NNC(=O)NC3CCCCC3)nc(=S)[nH]2)cc1 = > 100 µM
O=[N+]([O-])C=C1c2ccccc2-c2ccccc21 = 31.2 µM
Cc1cccc(C)c1N=Nc1ccc(O)c(CN(C)C)c1 = > 100 µM

[ask] What value of TGI has been reported for the following molecule? O=C(CSSCC(=O)OCCS(=O)(=O)Nc1ccc(Br)cc1)OCCS(=O)(=O)Nc1ccc(Br)cc1
[reply] 44.2 µM

[ask] What value of TGI has been reported for the following molecule? Cc1ccccc1C(C(=O)NC1CCCCC1)N(C(=O)CNc1ncccc1F)c1cccc(F)c1 (stereo not given)
[reply] > 100 µM

[ask] What value of TGI has been reported for the following molecule? Nc1nn(C(=O)Nc2c(F)cccc2F)c2ccccc12
[reply] > 100 µM

[ask] What value of TGI has been reported for the following molecule? CCOc1cccc(-c2cc(=O)c3cc4c(cc3[nH]2)OCO4)c1
[reply] > 100 µM

[ask] What value of TGI has been reported for the following molecule? O=C1CS(=O)(=O)C(c2cccc(Oc3ccccc3)c2)N1C1CC1 (stereo not given)
[reply] > 100 µM

[ask] What value of TGI has been reported for the following molecule? CC(=O)NNc1nc(C)c(C(=O)/C=C/c2ccc(Cl)c(Cl)c2)s1
[reply] > 100 µM
